B1: Lysine-specific demethylase 5C, residues 319 to 373; numbered along this chain, P41229 (parent)
chain: AQFIESYVCRMCSRGDEDDKLLLCDGCDDNYHIFCLLPPLPEIPKGVWRCPKCVM

Variants of: B1
experimental-details: abundance fitness (aPCA) (normalised: wild type 0, dead -1); higher = more abundant; growth selection in yeast, the domain comes from the species named
reported-conditions: Homo sapiens
The class of a record is decided solely by its measured abundance fitness; consult low value: < -0.4; medium value: ≥ -0.4 and < -0.06; high value: ≥ -0.06

>>> class_label("A1D")
"high value"
>>> class_label("I4N")
"medium value"
>>> class_label("K20F")
"medium value"
>>> class_label("L21D")
"low value"
>>> class_label("L23K")
"high value"
>>> class_label("C9L")
"low value"
>>> class_label("D28E")
"medium value"
>>> class_label("L22H")
"low value"

Input: Input F3E ; output its category
Output: medium value

Input: Input F34E ; output its category
Output: high value

Input: Input C27L ; output its category
Output: low value

Input: Input C9T ; output its category
Output: low value

Input: Input D29N ; output its category
Output: high value

Input: Input Y7M ; output its category
Output: high value

Input: Input E17T ; output its category
Output: high value

Input: Input E17Q ; output its category
Output: medium value

Input: Input Y7Q ; output its category
Output: high value

Input: Input C12K ; output its category
Output: low value

Input: Input D19L ; output its category
Output: medium value

Input: Input E5S ; output its category
Output: medium value

Input: Input H32A ; output its category
Output: low value

Input: Input R10A ; output its category
Output: medium value

Input: Input R10Q ; output its category
Output: low value

The reported measurements were obtained from the Human Domainome abundance scans (Beltran et al. 2025).
